assay: Quantitative high throughput screen for delayed death inhibitors of the malarial parasite plastid, 96 hour incubation (AID 488745); conditions: Plasmodium falciparum growth; series mostly up to 28.7 µM; further: nearly all actives have a fitted effect of over 70% in size; further: potency means the concentration at half of the fitted maximal effect
Inconclusive results are not listed. Calls of active or inactive are those of the source. The call rests on the fitted dose curve; in most records, active means well fitted inhibition curve with a large enough effect; inconclusive means small, poorly fitted or top-dose-only effect, or effect the other way; inactive means no such curve, though single readings can be large or run the other way.
endpoint-name: Potency

These solved cases illustrate the format of a correct answer.
CC(C)(C=O)Cc1cc(C(C)(C)C)c(O)c(C(C)(C)C)c1 ... inactive
Fc1ccc(C(OCCCc2cnc[nH]2)c2ccc(F)cc2)cc1 ... 2620 nM (active)
CCN1/C(=C/C(C)=O)Sc2ccc(OC)cc21 ... inactive
NCCCCCCCCCCN ... inactive
N[C@@H](CC(=O)O)C(=O)O ... inactive

// Potency lookup, key: CO/N=C(\C(=O)N[C@@H]1C(=O)N2C(C(=O)O)=C(COC(C)=O)CS[C@H]12)c1csc(N)n1 (stereo in doubt)
inactive

Look at this compound and give its reported Potency. O=C(O)c1cc([N+](=O)[O-])ccc1NCCCc1ccccc1
inactive

Quick one: Potency for Cc1ccccc1CNc1ncnc2c1ncn2C1OC(CO)C(O)C1O (stereo not drawn) ?
inactive

# Potency lookup, item O=C(O)CC[C@@H](C(=O)O)N1C(=O)c2ccccc2C1=O
inactive

Can you look up the measured Potency of O=C(c1cc(O)c(O)c([N+](=O)[O-])c1)c1ccccc1F for me?
inactive

Dear colleague, I am looking for the recorded Potency of the following compound: C=C/C(C)=C/[C@@]1(C)SC(=O)C(C)=C1O
inactive

Given O=c1[nH]c2cc([N+](=O)[O-])c([N+](=O)[O-])cc2[nH]c1=O , state its recorded Potency.
inactive

Value lookup for Potency; key = O=C(Nc1cccc(C(=O)Nc2ccc(S(=O)(=O)O)c3cc(S(=O)(=O)O)cc(S(=O)(=O)O)c23)c1)Nc1cccc(C(=O)Nc2ccc(S(=O)(=O)O)c3cc(S(=O)(=O)O)cc(S(=O)(=O)O)c23)c1
inactive
